target: von Hippel-Lindau disease tumor suppressor/Histone deacetylase 3 (Homo sapiens, UniProt O15379+P40337); test: PROTAC activity at VHL/HDAC3 in human MDA-MB-468 cells assessed as induction of HDAC3 degradation incubated for 14 hrs by Western blot analysis
Sequence (O15379 whole entry): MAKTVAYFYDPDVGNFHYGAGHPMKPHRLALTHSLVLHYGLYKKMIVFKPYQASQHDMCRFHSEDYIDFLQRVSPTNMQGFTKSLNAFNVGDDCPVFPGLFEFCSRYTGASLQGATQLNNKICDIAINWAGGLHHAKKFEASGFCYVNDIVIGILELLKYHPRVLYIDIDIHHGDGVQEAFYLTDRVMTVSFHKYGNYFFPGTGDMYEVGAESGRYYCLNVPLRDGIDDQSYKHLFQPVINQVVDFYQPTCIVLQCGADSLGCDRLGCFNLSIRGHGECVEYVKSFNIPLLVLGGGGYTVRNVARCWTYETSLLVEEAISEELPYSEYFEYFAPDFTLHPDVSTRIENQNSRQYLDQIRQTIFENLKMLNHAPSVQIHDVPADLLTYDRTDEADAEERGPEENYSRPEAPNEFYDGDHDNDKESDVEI
Sequence (P40337 whole entry): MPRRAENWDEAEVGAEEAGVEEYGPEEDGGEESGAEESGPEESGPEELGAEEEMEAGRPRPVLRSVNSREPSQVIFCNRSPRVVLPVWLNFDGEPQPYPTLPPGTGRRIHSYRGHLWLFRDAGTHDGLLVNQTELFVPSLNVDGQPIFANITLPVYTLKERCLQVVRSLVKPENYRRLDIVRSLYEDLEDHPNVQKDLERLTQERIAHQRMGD
pEC50: −log10 of the molar value.
property.label: pEC50

{"compound.structure": "CCCNNC(=O)c1ccc(-c2ccc(NC(=O)CCCCCCC(=O)N[C@H](C(=O)N3C[C@H](O)C[C@H]3C(=O)N[C@@H](C)c3ccc(-c4scnc4C)cc3)C(C)(C)C)cc2)cc1", "result.number": 7.38}

* * *

test: Inhibition of His-tagged recombinant human HDAC1 expressed in baculovirus infected insect cells using SIRT1 deacetylase substrate incubated for 30 mins by Luminescence Glo assay
property.label: IC50 (nM)

{"compound.structure": "CCCCNNC(=O)c1ccc(-c2ccccc2)cc1", "result.number": 90}

* * *

biological target: UniProt Q13547; test: Inhibition of HDAC1 (unknown origin) using fluorimetric substrate incubated for 30 mins by fluorogenic assay
Sequence (Q13547 whole entry): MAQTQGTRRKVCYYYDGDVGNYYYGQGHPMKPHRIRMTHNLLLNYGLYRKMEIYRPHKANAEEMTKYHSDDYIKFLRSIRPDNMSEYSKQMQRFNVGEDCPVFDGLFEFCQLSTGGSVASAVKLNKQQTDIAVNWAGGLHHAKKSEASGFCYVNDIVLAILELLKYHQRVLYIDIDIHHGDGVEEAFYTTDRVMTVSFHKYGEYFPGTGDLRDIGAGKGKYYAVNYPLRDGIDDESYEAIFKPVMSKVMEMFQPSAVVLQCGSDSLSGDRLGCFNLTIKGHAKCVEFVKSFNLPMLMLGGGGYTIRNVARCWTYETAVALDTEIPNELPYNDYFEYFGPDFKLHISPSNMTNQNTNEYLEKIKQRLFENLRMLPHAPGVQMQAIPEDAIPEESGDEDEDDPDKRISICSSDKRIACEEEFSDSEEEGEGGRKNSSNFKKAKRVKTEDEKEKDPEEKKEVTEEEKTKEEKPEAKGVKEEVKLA
property.label: IC50 (µM)

{"compound.structure": "Cc1ccc(C(=O)Nc2nc(C(=O)NO)co2)cc1", "result.number": 0.01}

* * *

molecular target: von Hippel-Lindau disease tumor suppressor/Histone deacetylase 2 (Homo sapiens, UniProt P40337+Q92769); assay: PROTAC activity at VHL/HDAC2 (unknown origin) by cell based assay

{"compound.structure": "CCCNNC(=O)c1ccc(-c2ccc(NC(=O)CCCCCCC(=O)N[C@H](C(=O)N3C[C@H](O)C[C@H]3C(=O)N[C@@H](C)c3ccc(-c4scnc4C)cc3)C(C)(C)C)cc2)cc1", "measurement.unit": "nM", "IC50": 1550}

* * *

target: Protein cereblon/Protein deacetylase HDAC6 (Homo sapiens, UniProt Q96SW2+Q9UBN7); assay: PROTAC activity at CRBN/HDAC6 (unknown origin) by cell based assay
Sequence (Q9UBN7 whole entry, one chain of several): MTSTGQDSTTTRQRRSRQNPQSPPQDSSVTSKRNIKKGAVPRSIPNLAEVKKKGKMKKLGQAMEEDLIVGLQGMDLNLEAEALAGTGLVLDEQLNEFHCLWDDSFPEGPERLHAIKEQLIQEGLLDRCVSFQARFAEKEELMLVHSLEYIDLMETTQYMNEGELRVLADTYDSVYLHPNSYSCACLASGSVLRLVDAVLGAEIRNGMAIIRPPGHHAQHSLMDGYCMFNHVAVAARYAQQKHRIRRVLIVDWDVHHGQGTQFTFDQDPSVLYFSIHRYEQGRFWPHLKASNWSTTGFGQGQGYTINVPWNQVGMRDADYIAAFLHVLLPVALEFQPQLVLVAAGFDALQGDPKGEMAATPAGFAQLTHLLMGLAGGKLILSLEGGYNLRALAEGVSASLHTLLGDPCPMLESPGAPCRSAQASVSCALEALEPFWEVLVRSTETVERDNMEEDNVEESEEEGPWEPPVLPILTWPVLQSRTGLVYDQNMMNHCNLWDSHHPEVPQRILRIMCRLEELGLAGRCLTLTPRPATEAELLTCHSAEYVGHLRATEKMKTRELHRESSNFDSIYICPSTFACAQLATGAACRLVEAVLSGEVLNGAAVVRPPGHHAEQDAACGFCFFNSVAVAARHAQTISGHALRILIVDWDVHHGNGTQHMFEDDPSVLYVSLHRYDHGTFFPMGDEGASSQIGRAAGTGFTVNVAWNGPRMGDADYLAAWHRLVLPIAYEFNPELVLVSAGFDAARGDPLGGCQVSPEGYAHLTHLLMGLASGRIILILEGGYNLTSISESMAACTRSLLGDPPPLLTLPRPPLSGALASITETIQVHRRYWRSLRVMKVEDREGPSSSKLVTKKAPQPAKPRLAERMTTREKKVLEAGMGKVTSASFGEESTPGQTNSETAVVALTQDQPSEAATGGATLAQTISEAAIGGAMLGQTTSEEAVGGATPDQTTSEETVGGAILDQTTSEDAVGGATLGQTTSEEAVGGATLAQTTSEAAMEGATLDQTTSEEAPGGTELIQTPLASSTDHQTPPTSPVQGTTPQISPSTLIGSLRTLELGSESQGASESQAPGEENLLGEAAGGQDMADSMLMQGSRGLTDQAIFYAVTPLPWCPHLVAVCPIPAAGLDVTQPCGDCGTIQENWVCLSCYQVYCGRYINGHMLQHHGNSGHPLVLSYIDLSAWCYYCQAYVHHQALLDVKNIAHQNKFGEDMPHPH

{"compound": "O=C(CCCCCCNC(=O)c1ccc(NC(=O)COCCOCCNC(=O)COc2cccc3c2C(=O)N(C2CCC(=O)NC2=O)C3=O)cc1)NO (stereo unspecified)", "measurement.unit": "nM", "IC50": 27}

* * *

test system: HeLa; experiment: Antiproliferative activity against human HeLa cells assessed as cell growth inhibition incubated for 48 hrs by MTT assay; type: functional, cell-based
pIC50: −log10 of the molar value.

{"compound.structure": "COc1ccc2cc(C(=O)Oc3cccc(/C=C/C(=O)NO)c3)c(=O)oc2c1", "pIC50": 6.64}

* * *

biological target: Protein cereblon/Histone deacetylase 2 (Homo sapiens, UniProt Q92769+Q96SW2); assay: PROTAC activity at CRBN/HDAC2 (unknown origin) by cell based assay
Sequence (Q92769 whole entry): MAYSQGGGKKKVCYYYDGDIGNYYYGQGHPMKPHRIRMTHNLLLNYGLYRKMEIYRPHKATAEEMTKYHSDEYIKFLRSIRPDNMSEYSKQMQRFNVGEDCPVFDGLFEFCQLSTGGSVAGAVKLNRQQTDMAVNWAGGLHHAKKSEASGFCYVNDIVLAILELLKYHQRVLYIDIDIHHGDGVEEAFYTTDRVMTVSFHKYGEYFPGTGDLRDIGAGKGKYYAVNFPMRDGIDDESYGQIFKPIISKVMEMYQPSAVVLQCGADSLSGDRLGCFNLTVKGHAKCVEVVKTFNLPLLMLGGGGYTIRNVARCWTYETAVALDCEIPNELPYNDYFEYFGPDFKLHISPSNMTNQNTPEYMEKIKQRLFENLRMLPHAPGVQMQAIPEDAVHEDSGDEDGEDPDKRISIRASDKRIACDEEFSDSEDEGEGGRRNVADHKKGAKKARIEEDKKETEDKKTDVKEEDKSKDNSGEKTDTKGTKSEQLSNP
Sequence (Q96SW2 whole entry): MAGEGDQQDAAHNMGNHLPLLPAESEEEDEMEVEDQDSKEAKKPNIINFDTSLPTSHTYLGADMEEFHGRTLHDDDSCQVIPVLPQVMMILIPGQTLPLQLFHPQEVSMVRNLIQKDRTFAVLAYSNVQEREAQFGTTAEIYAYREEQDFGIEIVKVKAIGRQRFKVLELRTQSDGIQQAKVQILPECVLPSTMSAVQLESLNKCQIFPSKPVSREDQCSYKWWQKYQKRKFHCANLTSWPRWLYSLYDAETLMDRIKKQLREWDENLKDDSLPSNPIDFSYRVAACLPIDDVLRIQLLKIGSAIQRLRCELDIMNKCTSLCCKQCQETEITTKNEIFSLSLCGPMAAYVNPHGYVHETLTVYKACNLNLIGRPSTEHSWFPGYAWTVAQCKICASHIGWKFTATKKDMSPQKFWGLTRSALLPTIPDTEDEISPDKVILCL
pIC50: −log10 of the molar value.
property.label: pIC50

{"molecule": "O=C(CCCCCCNC(=O)c1ccc(NC(=O)COCCOCCNC(=O)COc2cccc3c2C(=O)N(C2CCC(=O)NC2=O)C3=O)cc1)NO (stereo unspecified)", "result.number": 6.61}
